From: patent US5668165A

System: binding of Rev to the RRE (67-nt RNA probe containing a high affinity Rev-binding site)
Parameters: species or system HIV
Conditions: Rev/RRE binding inhibition assay, summary of thirteen 2-DOS aminoglycosides
METRIC: inhibiting the binding of Rev to the RRE

Input NCC[C@H](O)C(=O)N[C@@H]1C[C@H](N)[C@@H](O[C@H]2O[C@H](CN)[C@@H](O)[C@H](O)[C@H]2O)[C@H](O)[C@H]1O[C@H]1O[C@H](CO)[C@@H](O)[C@H](N)[C@H]1O . Output inhibiting the binding of Rev to the RRE: effective

Data point: NC[C@H]1O[C@H](O[C@H]2[C@H](O[C@@H]3O[C@H](CO)[C@@H](O)[C@H]3O)[C@@H](O)[C@H](N)C[C@@H]2N)[C@H](N)[C@@H](O)[C@@H]1O ; inhibiting the binding of Rev to the RRE = effective

Lab book: inhibiting the binding of Rev to the RRE of NC[C@H]1O[C@H](O[C@H]2[C@H](O)[C@@H](O)[C@H](N)C[C@@H]2N)[C@H](N)[C@@H](O)[C@@H]1O noted as effective
